All values here come from paper PMC6732734.

- Test Name: In vivo gentamicin release / pharmacokinetics after tail vein injection
- Design: species or system Wistar rats
- Condition Details: male, Wistar, rat, plasma, iv, 2 mg
Metric: AUC(0-inf) (µg·h/mL)
Give the value in µg·h/mL but do not write µg·h/mL after it.

Hello, please tell me recorded AUC(0-inf) for this one: CNC(C)C1CCC(N)C(OC2C(N)CC(N)C(OC3OCC(C)(O)C(NC)C3O)C2O)O1 (stereo not shown) 203

* * *

- Test Name: In vivo gentamicin release / pharmacokinetics after tail vein injection
- Set-up: species or system Wistar rats
- Condition Details: male, Wistar, rat, plasma, iv, 2 mg
Metric: Vd (L/kg)
I only need the number, in L/kg, no unit after it.

Please give the documented Vd of CNC(C)C1CCC(N)C(OC2C(N)CC(N)C(OC3OCC(C)(O)C(NC)C3O)C2O)O1 (stereo not shown) 0.1

* * *

- Test Name: In vivo gentamicin release / pharmacokinetics after tail vein injection
- Parameters: species or system Wistar rats
- Condition Details: male, Wistar, rat, plasma, iv, 2 mg
Metric: Cmax

Check the records and state Cmax for CNC(C)C1CCC(N)C(OC2C(N)CC(N)C(OC3OCC(C)(O)C(NC)C3O)C2O)O1 (stereo not shown) 8.4 µg/mL
